Listed next: entries and their corresponding shrunken log2 fold change.
- Tested on: Escherichia coli TOP10;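 also: peptides expressed intracellularly from a pBAD plasmid library in pooled LB shake-flask culture, induced with 0.3% L-arabinose, DNA abundance read by NGS, three biological replicates, DESeq2 with apeglm shrinkage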
- ASSAY_SUMMARY: shrunken log2 fold change of peptide-encoding DNA abundance (4.5 h post-induction vs induction); higher = less antimicrobial activity (less host growth inhibition)
- EXPERIMENTAL_PARAMETERS: time post-induction: 4.5 h; library: site-saturation at positions 5, 18, 19, 20
// no unit, no text: just the number

Any idea what shrunken log2 fold change was measured for RRIRSRPPRLPRPRPRPGREPRP ?
0.325

Continuing:
Any idea what shrunken log2 fold change was measured for RRIRSRPPRLPRPRPRPSPKPRP ?
0.0583

Now give it for RRIRSRPPRLPRPRPRPRFHPRP too.
-0.302

Now give it for RRIRDRPPRLPRPRPRPKCAPRP too.
0.169

Now give it for RRIRVRPPRLPRPRPRPWSMPRP too.
-0.014

Now give it for RRIRHRPPRLPRPRPRPDQDPRP too.
-0.0366

Now give it for RRIRFRPPRLPRPRPRPQVCPRP too.
-0.00807

Now give it for RRIRTRPPRLPRPRPRPFGEPRP too.
-0.101
